Each entry below carries its recorded z-score.
Target or system: NADPH oxidase 4 (Homo sapiens)
Assay overview: compounds shifting NOX4 Amplex Red fluorescence – cell-based, HEK293-NOX4, tetracycline-induced, NOX inhibitor project, primary screen (AID 1160)
Experimental parameters: HEK293-NOX4, Amplex Red H2O2 fluorescence, 45 min; higher = more signal, called active from +8 up or from −8 down
Measurement kind: z-score

{"Compound": "CC1CC/C=C\\[C@H]2OC34C=CCN(Cn5nnc6ccccc65)C(=O)[C@H]3N(CCCCCO)C(=O)[C@@H]4C2C(=O)O1 (stereo partly drawn)", "Measurement kind": "z-score", "Readout number": 0.341}
{"Compound": "CC(C)OC(=O)C=C1C[C@@H](c2cccc(Cl)c2)O[C@@H](c2cccc(Cl)c2)O1", "Measurement kind": "z-score", "Readout number": -0.914}
{"Compound": "NC(=O)N1C(=O)C2C(C1=O)C1C=C(CCCO)C2C(C2CC2)N1Cc1cc2c(cc1Br)OCO2 (stereo not drawn)", "Measurement kind": "z-score", "Readout number": -0.381}
{"Compound": "CCCCC(=C=CC[C@@H](O)c1cccc(OCCO)c1)C[C@@H](O)c1ccccn1", "Measurement kind": "z-score", "Readout number": -0.544}
{"Compound": "[N-]=[N+]=NCc1ccccc1[C@@H]1OC(c2ccc(OCCCO)cc2)=N[C@]1(CCS(=O)(=O)c1ccccc1)C(=O)N1CCOCC1", "Measurement kind": "z-score", "Readout number": 1.18}
{"Compound": "COCCOC(=O)N1C(=O)[C@@]2(c3ccccc31)[C@H](C(=O)N1CCCCCCC1)[C@H]1C(=O)O[C@H](c3ccccc3)[C@H](c3ccccc3)N1[C@@H]2c1ccc(OCCO)cc1", "Measurement kind": "z-score", "Readout number": 0.867}
{"Compound": "CCCCC(O)C1C=CC2C(=O)N(C)C(=O)C2N1N1CCCCC1 (stereo not drawn)", "Measurement kind": "z-score", "Readout number": 0.133}
{"Compound": "O=C1C2C=CC(C(O)C=Cc3ccc([N+](=O)[O-])cc3)N(Nc3ccccc3F)C2C(=O)N1c1ccccc1 (stereo not drawn)", "Measurement kind": "z-score", "Readout number": -3.02}

----------
Assay overview: hepatitis C replication reporter changes, two-sided – Huh7 cells, luciferase reporter, HCV replication inhibitor project, primary screen (AID 1109);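 further: huh7 hepatoma cells harbouring a luciferase neomycin HCV replicon reporter; luciferase luminescence as measure of HCV replicon replication; test concentration not given here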
Experimental parameters: Huh7 HCV replicon luciferase reporter, 48 h; higher = more signal
Form field: z-score (one value per entry).

{"Compound": "C=CCNC(=O)[C@@H]1[C@H]2C(=O)O[C@H](c3ccccc3)[C@H](c3ccccc3)N2[C@H](c2ccc(OCCO)cc2)[C@@]12C(=O)N(C(=O)OCCOC)c1ccc(C#CCNC(N)=O)cc12", "z-score": -0.635}
{"Compound": "CCCCN1CC=CC23O[C@@H]4/C=C\\CCCOC(=O)C4[C@H]2C(=O)N(CCCO)[C@@H]3C1=O (some centres undefined)", "z-score": -0.381}
{"Compound": "COc1ccc([Si](C)(C)[C@@H]2[C@@H](CC(=O)N3Cc4ccccc4C[C@H]3CO)O[C@]3(C(=O)N(Cc4cccc(N5CCC5=O)c4)c4ccccc43)[C@H]2C)cc1", "z-score": -3.58}
{"Compound": "COc1ccccc1CN1C(=O)c2ccccc2[C@@]2(Cc3ccccc3N(CCCN(C)C)C2=O)[C@@H]1c1ccc(CO)cc1", "z-score": -1.86}

----------
// composite z-score lookup, one value per entry
Assay overview: probe aShh binding to arrayed compounds – biochemical, biotinylated probe, 635/667 nm fluorescence, primary screen (AID 1114);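 further: probe is biotin-labelled aShh protein from a stem cell growth factor screen; measures binding of labelled protein to compounds printed on the slide; score merges feature fluorescence at 667 nm with signal-to-noise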
Experimental parameters: small-molecule microarray, higher = more signal
Measurement kind: composite z-score

{"Compound": "CCCCC(=C=CC[C@@H](O)c1cccc(OCCO)c1)C[C@@H](O)c1ccccn1", "Result": -0.0553}
{"Compound": "C=CC[C@]1(C(N)=O)COC(c2ccc(OCCCO)cc2)=N1", "Result": -0.0793}
{"Compound": "COCCOC(=O)N1C(=O)[C@@]2(c3ccccc31)[C@H](C(=O)N1CCCCCCC1)[C@H]1C(=O)O[C@H](c3ccccc3)[C@H](c3ccccc3)N1[C@@H]2c1ccc(OCCO)cc1", "Result": 3.65}
{"Compound": "CC(C)(C)OC(=O)CC[C@@]1(C(=O)N2CCCCC2)N=C(c2ccc(OCCCO)cc2)O[C@@H]1c1ccccc1", "Result": 0.476}
{"Compound": "CCCNC(=O)[C@@]1(Sc2ccc(C)cc2)CC(=O)N(Cc2ccccc2C(F)(F)F)[C@@H]1c1ccc(CO)cc1I", "Result": 0.0639}
{"Compound": "CC(C)NC(=O)[C@@H]1c2ccccc2C(=O)N(C(C)C)[C@H]1c1ccc(CO)cc1", "Result": -0.291}
{"Compound": "O=C1OCCC=C[C@H]2OC34C=CCN(c5ccc(Cl)cc5)C(=O)[C@H]3N(CCCO)C(=O)[C@@H]4C12 (stereo partly specified)", "Result": -0.186}
{"Compound": "O=C(NC1CC1)[C@@H]1c2ccccc2C(=O)N(C2Cc3ccccc3C2)[C@H]1c1ccc(CO)cc1", "Result": -0.457}
{"Compound": "CC(C)C(=C=CC[C@H](O)c1ccc(CO)o1)CCO", "Result": -0.0793}
{"Compound": "C=C(CCCC)/C(=C/C[C@H](OC(=O)c1ccncc1)c1ccc(OCCO)cc1)c1cc(C(=O)OC)ccc1OC", "Result": 0.216}
{"Compound": "O=C1OCCC=C[C@H]2OC34C=CCN(Cn5nnc6ccccc65)C(=O)[C@H]3N(CCO)C(=O)[C@@H]4C12 (stereo partly specified)", "Result": -0.262}
{"Compound": "O=C(O)[C@H](Cc1ccccc1)n1cc(-c2ccccc2)nn1", "Result": -0.237}
{"Compound": "CCOc1cc(C(O)C2C=CC3C(=O)N(c4ccccc4)C(=O)C3N2Nc2ccc(C(C)C)cc2)ccc1O (stereo unspecified)", "Result": -0.0119}
{"Compound": "CC(C)CN1C(=O)[C@@]2(c3ccc([N+](=O)[O-])cc3)CC(=O)N(C3CCCCC3)[C@@H]2c2ccc(CO)cc21", "Result": -0.33}
{"Compound": "C=CCNC(=O)[C@@H]1[C@H]2C(=O)O[C@H](c3ccccc3)[C@H](c3ccccc3)N2[C@H](c2ccc(OCCO)cc2)[C@@]12C(=O)N(C(=O)OCCOC)c1ccc(C#CCC(C(=O)OC)C(=O)OC)cc12", "Result": 0.199}
{"Compound": "CN1C(=O)C2C=CC(C(O)c3c(F)cccc3Cl)N(NC(=O)OC(C)(C)C)C2C1=O (stereo unspecified)", "Result": -0.167}
{"Compound": "C=CCN1C(=O)[C@]2(O[C@H](CCO)[C@@H]([Si](C)(C)c3ccc(OC)cc3)[C@@H]2C)c2cc(N(C=O)c3ccccc3)ccc21", "Result": 0.0684}
{"Compound": "CS(=O)(=O)CCOC(=O)C1=CC(CCCO)=CC(c2ccc(CN3CCCC3)cc2)N(Cc2cccc(OC(F)(F)F)c2)C=C1C(=O)OCCS(C)(=O)=O (stereo unspecified)", "Result": 0.0434}
{"Compound": "O=C1O[C@H](c2ccccc2)[C@H](c2ccccc2)N2[C@H]1[C@@H](C(=O)N1CCN(c3ncccn3)CC1)[C@]1(C(=O)Nc3ccc(C#CC4=CCCCC4)cc31)[C@H]2c1ccccc1OCCO", "Result": 0.299}
{"Compound": "COC(=O)[C@@]1(Cc2ccccc2)[C@H]2c3cc(C(=O)N4CCCC4)n(Cc4ccc(O)c(OC)c4)c3C[C@H]2CN1C(=O)c1ccccc1", "Result": 1.14}
{"Compound": "O=C1O[C@H](c2ccccc2)[C@H](c2ccccc2)N2[C@H]1[C@@H](C(=O)NC[C@H](O)c1ccccc1)[C@]1(C(=O)Nc3ccccc31)[C@H]2c1ccc(O)cc1", "Result": -0.138}

----------
Assay overview: probe aInhba binding on compound microarray – biochemical, small-molecule microarray, 635/667 nm fluorescence, primary screen (AID 1148);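 further: score merges 667nm spot fluorescence with signal-to-noise for antibody binding to printed compounds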
Experimental parameters: higher = more signal
# composite z-score >= 0.03 gives 1.0, anything below gives 0.0

{"Compound": "C=CCOC(=O)[C@H]1[C@@H]2C(=O)O[C@@H](c3ccccc3)[C@@H](c3ccccc3)N2[C@@H](c2ccc(OCCOC(=O)[C@H]3C[C@H]4C(=O)N[C@@H](CCCCN(C)C)C(=O)N4[C@H]3c3cccc(OCCO)c3)cc2)[C@]12C(=O)Nc1ccc(I)cc12", "Class name": 1.0}
{"Compound": "COc1ccc(C(=O)Nc2ccc(CN3C(=O)[C@]4(O[C@H](CC(=O)N5CCC[C@H]5CO)[C@@H]([Si](C)(C)c5ccc(OC)cc5)[C@@H]4C)c4ccccc43)cc2)cc1", "Class name": 1.0}
{"Compound": "COCC(=C=CC[C@H](O)c1cccc(OCCO)c1)C[C@H](O)c1cc(Cl)cc(Cl)c1O", "Class name": 0.0}
{"Compound": "C=C(CCCC)/C(=C/C[C@H](OC(=O)c1ccncc1)c1ccc(OCCO)cc1)c1cc(C(=O)OC)ccc1OC", "Class name": 0.0}
{"Compound": "COc1ccc(C(=O)Nc2cccc(CN3C(=O)[C@]4(O[C@H](CCn5cc(CCO)nn5)[C@@H]([Si](C)(C)c5ccc(OC)cc5)[C@@H]4C)c4ccccc43)c2)cc1", "Class name": 0.0}
{"Compound": "COC(=O)[C@@]1(Cc2ccc(OC)cc2)[C@H]2c3cc(C(=O)N4CCCC4)n(Cc4nc5ccccc5[nH]4)c3C[C@H]2CN1C(=O)c1ccccc1", "Class name": 1.0}
{"Compound": "CCCC=C(CCC)[C@@H](NS(=O)(=O)c1ccc(Cl)cc1)c1ccc(C(=O)OC)cc1", "Class name": 0.0}
{"Compound": "COC(=O)[C@@]1(Cc2ccccc2)[C@H]2c3cc(C(=O)N4CCCC4)n(Cc4c(CO)[nH]cc(C)c4=O)c3C[C@H]2CN1C(=O)c1ccccc1", "Class name": 0.0}
{"Compound": "COCCOC(=O)N1C(=O)[C@@]2(c3cc(C#CC4(O)CCCCCC4)ccc31)[C@H](c1ccccc1OCCO)N1[C@H](c3ccccc3)[C@H](c3ccccc3)OC(=O)[C@H]1[C@@H]2C(=O)N1CCc2cc(OC)c(OC)cc2C1", "Class name": 0.0}
{"Compound": "O=C1OCCC=C[C@H]2OC34C=CCN(c5ccc(Cl)cc5)C(=O)[C@H]3N(CCCO)C(=O)[C@@H]4C12 (some centres not stated)", "Class name": 0.0}
{"Compound": "[N-]=[N+]=NCc1ccccc1[C@@H]1OC(c2ccc(OCCCO)cc2)=N[C@]1(CCS(=O)(=O)c1ccccc1)C(N)=O", "Class name": 1.0}
{"Compound": "CCCC1(C(=O)OC)C=C2C(=C(c3ccccc3)C(=O)C2C)CN1 (configuration not stated)", "Class name": 1.0}
{"Compound": "CO[C@H]1O[C@H](CO)[C@@H](OC(=O)Nc2ccc(Oc3ccccc3)cc2)[C@H](OC(=O)Nc2ccc3c(c2)OCO3)[C@@H]1OC(=O)Nc1ccc2c(c1)OCO2", "Class name": 1.0}
{"Compound": "COc1ccc([Si](C)(C)[C@@H]2[C@@H](CC(=O)N3CCC[C@H]3CO)O[C@]3(C(=O)N(Cc4cccc(I)c4)c4ccccc43)[C@H]2C)cc1", "Class name": 0.0}
{"Compound": "O=C(CS)NCCCCCNC(=O)[C@@H]1C[C@@H]2C(=O)NCC(=O)N2[C@@H]1c1ccc(O)cc1", "Class name": 0.0}
{"Compound": "CN(C)CCCCCCNC(=O)[C@@H]1C[C@@H]2C(=O)N[C@@H](CCCC[N+](C)(C)C)C(=O)N2[C@@H]1c1ccc(O)cc1", "Class name": 0.0}
